- test-system: TDP-43 (Homo sapiens, UniProt Q13148 1-414)
- Sequence (Q13148 whole entry): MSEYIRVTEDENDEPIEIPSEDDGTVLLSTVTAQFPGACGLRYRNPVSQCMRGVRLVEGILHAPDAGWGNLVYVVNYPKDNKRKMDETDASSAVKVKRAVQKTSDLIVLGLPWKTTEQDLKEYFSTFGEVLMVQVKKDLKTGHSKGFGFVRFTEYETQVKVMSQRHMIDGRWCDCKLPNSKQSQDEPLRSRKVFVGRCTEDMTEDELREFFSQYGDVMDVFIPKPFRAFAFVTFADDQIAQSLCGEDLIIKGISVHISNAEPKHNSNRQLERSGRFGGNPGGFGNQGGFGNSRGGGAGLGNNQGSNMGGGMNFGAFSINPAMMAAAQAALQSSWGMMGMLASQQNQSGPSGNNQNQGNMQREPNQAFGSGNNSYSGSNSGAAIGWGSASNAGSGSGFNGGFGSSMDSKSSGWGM
- method-notes: RNA Bind-n-Seq with designed 260-mer pool; 25 mM Tris-HCl, 150 mM KCl, 3 mM MgCl2, BSA (printed 500 mg/mL), 20 units/mL SUPERase IN; pH not stated; 500 nM RNA pool, 1 h, 4 C; TDP-43 5, 50, 500 nM; high values mean tight binding
- test-context: protein: recombinant; tags: SBP (GST cleaved off with PreScission; pGEX-GST-SBP)
The full ranking holds about 9,900 sequences; the median of “r (bound/input frequency ratio)” is about 0.7, and the highest 2% start at about 6.5. This excerpt belongs to a sample that is enriched for the highest values.
binding signal overview

ENSMUSG00000029028.12|Lrrc47|48:52;54:58;70:75;77:81;83:87;99:104;106:110;112:116;133:137;149:154;156:160;172:176;179:183;185:189;201:206;208:212;229:233;235:23 … (ssRNA) RNA: GGGAGUUCUACAGUCCGACGAUCGCUUCGAUAUCCGCAUGCUACACCCUCCCUCCCCACGUGACUGUGGUCCGCUGACAGGCUCCUGUAGCACACGCACACCUGUAGGUGUCACACACGCACACGCACACCUGUAGGUGUCACACACGCACACGCACACCUAUAGGUAUCUGUGGCACACCUGUAGGUGUCACACACGCACACCUGUAGGUGUCACACAAGCACACGCACACCUGUAGGUGUCACACACGCACACCUAGGUGUCUGUAUAGCACACGCACACCUGUAGAUGUCACACAAGGUACUCUUGCGGUCGCACUAGUGUGGAAUUCUCGGGUGUCAAGG ... 1.21 R (bound/input frequency ratio)

Now turn to the next binder.
[in] Value lookup for binding signal; key = ENSMUSG00000029028.11|Lrrc47|54:58;60:64;76:81;83:87;89:93;105:110;112:116;118:122;139:143;155:160;162:166;178:182;185:189;191:195;207:212;214:218;235:239;241:2 … (ssRNA) RNA: GGGAGUUCUACAGUCCGACGAUCGCUUCGAUAUCCGCAUGCUACCUGAUCACCCUCCCUCCCCACGUGACUGUGGUCCGCUGACAGGCUCCUGUAGCACACGCACACCUGUAGGUGUCACACACGCACACGCACACCUGUAGGUGUCACACACGCACACGCACACCUAUAGGUAUCUGUGGCACACCUGUAGGUGUCACACACGCACACCUGUAGGUGUCACACAAGCACACGCACACCUGUAGGUGUCACACACGCACACCUAGGUGUCUGUAUAGCACACGCACACCUGUAGAUGUCUGUGCUCUUGCGGUCGCACUAGUGUGGAAUUCUCGGGUGUCAAGG
[out] 1.45 R (bound/input frequency ratio)
